Data origin: paper PMC6222509

# Test system: M. kansasii CNCTC My 235/80 (identical with ATCC 12478; MK 235/80)
# procedure text: in vitro antimycobacterial MIC, dilution micromethod in Šula's semisynthetic medium
# Type: cell-based, Mycobacterium kansasii
# setup conditions: Mycobacterium kansasii, ATCC12478, 336 h, read-out: MIC MK 235/80 14-d

compound: CCCCCCOc1cccc(NC(=O)OC(CN(CCC)CCC)CN2CCCCCC2)c1.Cl.Cl (stereo not drawn)
units: µM
MIC: 16
//
compound: CCCCCCCOc1ccccc1NC(=O)OC(CN(CCC)CCC)CN1CCCC1.Cl.Cl (stereo not drawn)
units: µM
MIC: 16
//
compound: CCCCCOc1cccc(NC(=O)OC(CN(CCC)CCC)CN2CCCC2)c1.Cl.Cl (stereo not drawn)
units: µM
MIC: 16
//
compound: CCCCCCCOc1cccc(NC(=O)OC(CN(CCC)CCC)CN2CCCC2)c1.Cl.Cl (stereo not drawn)
units: µM
MIC: 8
//
compound: CCCCCOc1ccccc1NC(=O)OC(CN(CCC)CCC)CN1CCCCCC1.O=C(O)C(=O)O (stereo not drawn)
units: µM
MIC: 32
//
compound: CCCCCOc1cccc(NC(=O)OC(CN(CCC)CCC)CN2CCCCCC2)c1.Cl.Cl (stereo not drawn)
units: µM
MIC: 8

###

# Test system: M. avium CNCTC My 330/80 (identical with ATCC 25291; MA 330/80)
# procedure text: in vitro antimycobacterial MIC, dilution micromethod in Šula's semisynthetic medium
# Type: cell-based, Mycobacterium avium
# setup conditions: Mycobacterium avium, ATCC25291, 336 h, 14-day cultivation; read-out: MIC MA 330/80 14-d
Reported MIC values follow for various molecules

molecule: CCCCCCOc1ccccc1NC(=O)OC(CN(CCC)CCC)CN1CCCCCC1 (stereo not shown)
target or test system: M. avium CNCTC My 330/80 (identical with ATCC 25291; MA 330/80)
comparator: =
MIC / µM: 32
--
molecule: NNC(=O)c1ccncc1 [INH, isoniazid, reference compound]
target or test system: M. avium CNCTC My 330/80 (identical with ATCC 25291; MA 330/80)
comparator: >
MIC / µM: 250
--
molecule: CCCCOc1cccc(NC(=O)OC(CN(CCC)CCC)CN2CCCCCC2)c1 (stereo not shown)
target or test system: M. avium CNCTC My 330/80 (identical with ATCC 25291; MA 330/80)
comparator: =
MIC / µM: 16
--
molecule: CCCCOc1cccc(NC(=O)OC(CN(CCC)CCC)CN2CCCC2)c1 (stereo not shown)
target or test system: M. avium CNCTC My 330/80 (identical with ATCC 25291; MA 330/80)
comparator: =
MIC / µM: 62.5
--
molecule: CC[C@@H](CO)NCCN[C@@H](CC)CO [EMB, ethambutol, reference compound]
target or test system: M. avium CNCTC My 330/80 (identical with ATCC 25291; MA 330/80)
comparator: =
MIC / µM: 16
--
molecule: CC1COc2c(N3CCN(C)CC3)c(F)cc3c(=O)c(C(=O)O)cn1c23 (stereo not shown) [OFLX, ofloxacin, reference compound]
target or test system: M. avium CNCTC My 330/80 (identical with ATCC 25291; MA 330/80)
comparator: =
MIC / µM: 32
--
molecule: CCCCCCOc1ccccc1NC(=O)OC(CN(CCC)CCC)CN1CCCC1 (stereo not shown)
target or test system: M. avium CNCTC My 330/80 (identical with ATCC 25291; MA 330/80)
comparator: =
MIC / µM: 32

###

# procedure text: lipophilicity by isocratic RP-HPLC (log k, k, log kw, S)
# Format: physicochemical
# setup conditions: mobile phase MeOH/water 80:20 (v/v)
Outcome label depends on k (retention factor) relative to 9: at/above gives true (1), below gives false (0).

compound: CCCCCCOc1cccc(NC(=O)OC(CN(CCC)CCC)CN2CCCCCC2)c1.Cl.Cl (stereo not shown)
class name: true (1)

compound: CCCCCOc1ccccc1NC(=O)OC(CN(CCC)CCC)CN1CCCCCC1.O=C(O)C(=O)O (stereo not shown)
class name: true (1)

compound: CCCCCCCOc1cccc(NC(=O)OC(CN(CCC)CCC)CN2CCCCCC2)c1.Cl.Cl (stereo not shown)
class name: true (1)

compound: CCCCCCOc1ccccc1NC(=O)OC(CN(CCC)CCC)CN1CCCC1 (stereo not shown)
class name: true (1)

compound: CCCCOc1ccccc1NC(=O)OC(CN(CCC)CCC)CN1CCCCCC1 (stereo not shown)
class name: true (1)

compound: CCCCOc1cccc(NC(=O)OC(CN(CCC)CCC)CN2CCCCCC2)c1 (stereo not shown)
class name: false (0)

compound: CCCCCOc1cccc(NC(=O)OC(CN(CCC)CCC)CN2CCCC2)c1.Cl.Cl (stereo not shown)
class name: false (0)

compound: CCCCCCOc1ccccc1NC(=O)OC(CN(CCC)CCC)CN1CCCCCC1 (stereo not shown)
class name: true (1)

compound: CCCCOc1cccc(NC(=O)OC(CN(CCC)CCC)CN2CCCC2)c1 (stereo not shown)
class name: false (0)

compound: CCCCCCOc1cccc(NC(=O)OC(CN(CCC)CCC)CN2CCCC2)c1 (stereo not shown)
class name: false (0)

compound: CCCCCOc1ccccc1NC(=O)OC(CN(CCC)CCC)CN1CCCC1 (stereo not shown)
class name: false (0)

compound: CCCCCCCOc1cccc(NC(=O)OC(CN(CCC)CCC)CN2CCCCCC2)c1.O=C(O)C(=O)O (stereo not shown)
class name: true (1)

compound: CCCCCCCOc1ccccc1NC(=O)OC(CN(CCC)CCC)CN1CCCC1.Cl.Cl (stereo not shown)
class name: true (1)

compound: CCCCOc1ccccc1NC(=O)OC(CN(CCC)CCC)CN1CCCC1 (stereo not shown)
class name: false (0)

###

# Test system: Mycobacterium tuberculosis CNCTC My 331/88 (identical with H37Rv and ATCC 2794; MTv H37Rv)
# procedure text: in vitro antimycobacterial MIC, dilution micromethod in Šula's semisynthetic medium
# Assay type: cell-based
# setup conditions: Mycobacterium tuberculosis, 336 h; 14-day cultivation; read-out: MIC MTv H37Rv 14-d
measured metric: MIC (µM)

molecule: CCCCCOc1ccccc1NC(=O)OC(CN(CCC)CCC)CN1CCCCCC1.O=C(O)C(=O)O (centres unmarked)
numeric result: 16
//
molecule: CCCCCOc1cccc(NC(=O)OC(CN(CCC)CCC)CN2CCCCCC2)c1.Cl.Cl (centres unmarked)
numeric result: 4
//
molecule: NNC(=O)c1ccncc1 [INH, isoniazid, reference compound]
numeric result: 0.5
//
molecule: CCCCCCOc1ccccc1NC(=O)OC(CN(CCC)CCC)CN1CCCCCC1 (centres unmarked)
numeric result: 8
//
molecule: CCCCCOc1ccccc1NC(=O)OC(CN(CCC)CCC)CN1CCCC1 (centres unmarked)
numeric result: 16

###

Reported k (retention factor) values follow for various compounds
# procedure text: lipophilicity by isocratic RP-HPLC (log k, k, log kw, S)
# Format: physicochemical
# setup conditions: mobile phase MeOH/water 90:10 (v/v)

compound: CCCCCCOc1ccccc1NC(=O)OC(CN(CCC)CCC)CN1CCCCCC1 (stereo not drawn)
k (retention factor): 6.3650

compound: CCCCCCCOc1cccc(NC(=O)OC(CN(CCC)CCC)CN2CCCCCC2)c1.O=C(O)C(=O)O (stereo not drawn)
k (retention factor): 9.1601

compound: CCCCCCOc1cccc(NC(=O)OC(CN(CCC)CCC)CN2CCCCCC2)c1.Cl.Cl (stereo not drawn)
k (retention factor): 3.2915

compound: CCCCCOc1cccc(NC(=O)OC(CN(CCC)CCC)CN2CCCCCC2)c1.Cl.Cl (stereo not drawn)
k (retention factor): 2.6333

compound: CCCCCCCOc1cccc(NC(=O)OC(CN(CCC)CCC)CN2CCCC2)c1.Cl.Cl (stereo not drawn)
k (retention factor): 2.8609

compound: CCCCCOc1ccccc1NC(=O)OC(CN(CCC)CCC)CN1CCCCCC1.O=C(O)C(=O)O (stereo not drawn)
k (retention factor): 4.8173

###

# procedure text: lipophilicity by isocratic RP-HPLC (log k, k, log kw, S)
# Format: physicochemical
# setup conditions: slope of log k versus ϕM regression
# From the text: Octadecyl-functionalized silica gel was currently used as a stationary phase (SPh) and a […] of two solvents at different volume ratios modified retention properties of the SPh. […] The MeOH modifier was preferred because of similarity of both observed and extrapolated lipophilicity parameters with the ones determined in the octan-1-ol/water partition system, considering also sensitivity to H-bond donor properties of investigated compounds [41]. […]

molecule: CCCCOc1ccccc1NC(=O)OC(CN(CCC)CCC)CN1CCCC1 (stereo not shown) [1a]
S (slope): 3.7768
--
molecule: CCCCOc1cccc(NC(=O)OC(CN(CCC)CCC)CN2CCCCCC2)c1 (stereo not shown) [1m]
S (slope): 4.9316
--
molecule: CCCCCCCOc1ccccc1NC(=O)OC(CN(CCC)CCC)CN1CCCC1.Cl.Cl (stereo not shown) [1d]
S (slope): 4.7736
--
molecule: CCCCCCCOc1cccc(NC(=O)OC(CN(CCC)CCC)CN2CCCCCC2)c1.O=C(O)C(=O)O (stereo not shown) [1l]
S (slope): 5.5102
--
molecule: CCCCCCOc1ccccc1NC(=O)OC(CN(CCC)CCC)CN1CCCCCC1 (stereo not shown) [1k]
S (slope): 4.9286
--
molecule: CCCCCOc1cccc(NC(=O)OC(CN(CCC)CCC)CN2CCCCCC2)c1.Cl.Cl (stereo not shown) [1n]
S (slope): 5.3398
--
molecule: CCCCCCOc1cccc(NC(=O)OC(CN(CCC)CCC)CN2CCCC2)c1 (stereo not shown) [1g]
S (slope): 5.1128
--
molecule: CCCCCOc1cccc(NC(=O)OC(CN(CCC)CCC)CN2CCCC2)c1.Cl.Cl (stereo not shown) [1f]
S (slope): 4.9652
--
molecule: CCCCCCOc1ccccc1NC(=O)OC(CN(CCC)CCC)CN1CCCC1 (stereo not shown) [1c]
S (slope): 4.4634
--
molecule: CCCCOc1cccc(NC(=O)OC(CN(CCC)CCC)CN2CCCC2)c1 (stereo not shown) [1e]
S (slope): 4.3434
